All figures here come from patent US20220204611A1.

Target: T1, human TREM2 (human, UniProt Q9NZC2 19-174, limits assumed)
T1 sequence: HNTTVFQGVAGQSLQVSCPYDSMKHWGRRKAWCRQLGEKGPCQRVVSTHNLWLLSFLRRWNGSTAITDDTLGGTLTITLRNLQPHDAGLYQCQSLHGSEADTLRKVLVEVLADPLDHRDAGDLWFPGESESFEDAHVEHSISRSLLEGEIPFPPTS
Assay: yeast-displayed Fab FACS, 2nd screen 2 nM
measuredParameter: binding signal fold over 6E7 parental (fold)
The reply should contain only the number, in fold.

Observe how each entry below is paired with its result.
1. V60 (Fab, V domains shown) VH: EVQLVQSGAEVKKPGESLKISCKGSGYHFTSYWIAWVRQMPGKGLEWMGIIYPGDSDVRYSPSFQGQVTISADKSISTAYLQWSSLKASDTAMYFCARQRTFYYDSSDYSDYWGQGTLVTVSS VL: DIQMTQSPSSVSASVGDRVTITCRASQGISSWLAWYQQKPGKAPKLLIYAASSLQRGVPSRFSGSGSGTDFTLTISSLQPEDFATYFCGQADSFPRTFGQGTKLEIK; 3.35
2. V36 (Fab, V domains shown) VH: EVQLVQSGAEVKKPGESLKISCKGSGYSFTSYWLAWVRQMPGKGLEWMGIIYPGDSDTRYSPSFQGQVTISADKSISTAYLQWSSLKASDTAMYFCARSRTFYYDSSDYFDYWGQGTLVTVSS VL: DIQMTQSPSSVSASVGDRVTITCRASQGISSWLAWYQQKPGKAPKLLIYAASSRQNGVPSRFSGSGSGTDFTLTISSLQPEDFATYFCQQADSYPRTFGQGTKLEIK; 4

Which binding signal fold over 6E7 parental is reported for this binder? V17 (Fab, V domains shown) VH: EVQLVQSGAEVKKPGESLKISCKGSGYSFGSYWIAWVRQMPGKGLEWMGIIYPGDSDTRYSPSFQGQVTISADKSISTAYLQWSSLKASDTAMYFCARSRTFYYDSSDYFDYWGQGTLVTVSS VL: DIQMTQSPSSVSASVGDRVTITCRASQGISSWLAWYQQKPGKAPKLLIYAASSRQNGVPSRFSGSGSGTDFTLTISSLQPEDFATYFCQQADSSPRTFGQGTKLEIK
4.22
